All figures here come from PubChem BioAssay AID1745850.

# protocol_notes: Viability Counterscreen for Confirmatory qHTS for Inhibitors of ATXN expression; note: nearly all actives have a fitted effect of over 50% in size
# experimental_conditions: HEK-293 ATXN2-luc cells viability, CellTiter-Fluor, 24 h
Hit rate of the full screen: of about 2,100 compounds, about 260 (12%) were called active. Roughly 58% stayed inconclusive and do not appear here. Calls come from the whole dose curve; as a rule, active = well fitted cell-killing curve with a large enough effect; inconclusive = small, poorly fitted or top-dose-only effect, or effect the other way; inactive = flat fitted curve, though single readings scatter. The list shows a part of the results.
Labels: active, inactive

[
  {
    "compound": "CCCCCCC(=O)N/N=C/c1c(O)n(CCCC)c(=S)[nH]c1=O",
    "assigned_label": "inactive"
  },
  {
    "compound": "COc1ccc(CCNCc2ccc(F)cc2)cc1OC",
    "assigned_label": "inactive"
  },
  {
    "compound": "C#CCCC[C@@H]1OC(=O)CNC(=O)C([C@@H](C)CC)NC(=O)[C@@H]2CCCN2C(=O)C([C@@H](C)CC)OC(=O)[C@H](Cc2ccccc2)N(C)C(=O)[C@H](C(C)C)NC(=O)C1(C)C (stereo partly drawn)",
    "assigned_label": "active"
  },
  {
    "compound": "CCOC(=O)c1c(N)n(CCN2CCCCC2)c2nc3ccccc3nc12",
    "assigned_label": "inactive"
  },
  {
    "compound": "CC(C)CCNC(=O)c1c(N)n(Cc2ccc3c(c2)OCO3)c2nc3ccccc3nc12",
    "assigned_label": "inactive"
  },
  {
    "compound": "COC(=O)c1nc(-c2ccc3c(n2)C(=O)C(N)=C(OC)C3=O)c(N)c(-c2ccc(OC)c(OC)c2O)c1C",
    "assigned_label": "active"
  },
  {
    "compound": "CCOC(=O)[C@]12Cc3ccsc3[C@H]1N(Cc1ccccc1)C(=O)c1ccccc12",
    "assigned_label": "inactive"
  },
  {
    "compound": "CC(=O)OC1(C)CC(C)C(=O)C(C(O)CC2CC(=O)NC(=O)C2)C1 (stereo not drawn)",
    "assigned_label": "inactive"
  },
  {
    "compound": "COC1C(O)C(C)OC(OC2C(Oc3cccc4c(O)c5c(=O)oc6ccc(C)c7c(=O)oc(c34)c5c67)OC(C)C(O)C2O)C1O (stereo not drawn)",
    "assigned_label": "inactive"
  },
  {
    "compound": "CCCCCn1c(NC(=O)c2ccco2)c(C(=O)OCC)c2nc3ccccc3nc21",
    "assigned_label": "active"
  },
  {
    "compound": "NC(Cc1ccc(Cl)cc1)c1csc(Nc2ccccn2)n1 (stereo not drawn)",
    "assigned_label": "active"
  },
  {
    "compound": "O=[N+]([O-])c1oc2ccc3ccccc3c2c1CCO",
    "assigned_label": "active"
  },
  {
    "compound": "CC(C)(C)n1nnnc1C(CCc1ccccc1)N1CCC(n2c(=O)[nH]c3ccccc32)CC1 (stereo not drawn)",
    "assigned_label": "active"
  },
  {
    "compound": "COc1ccc(N=Cc2c(O)n(-c3ccc(C)cc3)c(=O)[nH]c2=O)cc1",
    "assigned_label": "inactive"
  },
  {
    "compound": "Cc1ccc(/C=C2\\C(=O)NC(=S)N(c3ccccc3F)C2=O)s1",
    "assigned_label": "active"
  },
  {
    "compound": "O=c1[nH]c2ccccc2n1C1CCN(C(CCc2ccccc2)c2nnnn2C2CCCC2)CC1 (stereo not drawn)",
    "assigned_label": "active"
  },
  {
    "compound": "c1ccc2sc(N3CCNCC3)nc2c1",
    "assigned_label": "inactive"
  },
  {
    "compound": "CC[C@@]1(O)C(=O)OCc2c1cc1n(c2=O)Cc2cc3c(NC(=O)CN)cccc3nc2-1",
    "assigned_label": "inactive"
  },
  {
    "compound": "N#Cc1c(Br)n(C2OC(CO)C(O)C2O)c2ncnc(N)c12 (stereo not drawn)",
    "assigned_label": "inactive"
  },
  {
    "compound": "CC(=NCCc1c[nH]c2ccccc12)c1c(O)n(Cc2ccccc2)c(=O)[nH]c1=O",
    "assigned_label": "inactive"
  },
  {
    "compound": "CCC(C)N1C(=O)/C(=C\\c2cnc(N(C)C)nc2)C(=O)NC1=S (stereo not drawn)",
    "assigned_label": "inactive"
  },
  {
    "compound": "Cc1cccc(-n2c(/C=C/c3ccc([N+](=O)[O-])o3)nc3ccccc3c2=O)c1",
    "assigned_label": "active"
  },
  {
    "compound": "CSCCC(c1nnnn1-c1c(C)cccc1C)N1CCC2(CC1)C(=O)NCN2c1ccccc1 (stereo not drawn)",
    "assigned_label": "active"
  }
]
